assay_notes: Neurotoxicity in ip dosed albino CF1 mouse assessed as median neurological impairing dose after 30 mins
Type: toxicity, organism-based
run_conditions: in vivo
measured_endpoint: TD50 at 0.5 h (mg/kg)
Enter your answer as a number in mg/kg; do not include the unit.

I'd like to know its TD50 at 0.5 h. The compound in question is CC(C)[C@@H](N)C(=O)NCc1ccc(OC(F)(F)F)cc1
84

Return reported TD50 at 0.5 h; argument: CC(C)(C)[C@@H](N)C(=O)NCc1ccc(OC(F)(F)F)cc1
73

Param item = CC(C)[C@@H](N)C(=O)NCc1ccccc1 ; retrieve measured TD50 at 0.5 h.
70

----------
Test system: Mus musculus
assay_notes: Analgesic activity in ip dosed NMRI mouse assessed as reduction in formalin-induced neuropathic pain after 30 mins
Assay type: functional
run_conditions: 0.5 h
Field 'label' (enum: Yes / No). Set to Yes when ED50 is strictly under 30 mg/kg; else No.

compound	class
CC(C)[C@@H](N)C(=O)NCc1ccccc1	Yes
COC[C@@H](N)C(=O)NCc1ccc(Br)cc1.Cl	No
COC[C@@H](N)C(=O)NCc1ccc(-c2ccccc2)cc1.Cl	No
COC[C@@H](NC(C)=O)C(=O)NCc1ccccc1 [LACOSAMIDE]	Yes
COC[C@H](N)C(=O)NCc1ccccc1	No

Find out if reported ED50 for C[C@@H](N)C(=O)NCc1ccc(OCc2cccc(F)c2)cc1 is less than 30 mg/kg
No

Given the entry COC[C@@H](N)C(=O)NCc1ccc(C(F)(F)F)cc1.Cl , would its reported ED50 be below 30 mg/kg?
No

Just wondering, is ED50 of COC[C@@H](N)C(=O)NCc1ccccc1.Cl below 30 mg/kg?
No

----------
assay_notes: Toxicity in po dosed albino Sprague-Dawley rat assessed as behavioural toxicity
Format: organism-based
run_conditions: in vivo
measured_endpoint: TD50

molecule	TD50
CC(C)(C)[C@@H](N)C(=O)NCc1ccc(COc2cccc(F)c2)cc1	> 30 mg/kg
CC(C)(C)[C@@H](N)C(=O)NCc1ccccc1	> 500 mg/kg
COC[C@@H](N)C(=O)NCc1ccc(COc2cccc(F)c2)cc1	> 500 mg/kg

Fill in the blank: the reported TD50 of CC(C)[C@@H](N)C(=O)NCc1ccc(OC(F)(F)F)cc1 is ____.
> 500 mg/kg

# lookup: TD50 of CC(C)[C@@H](N)C(=O)NCc1ccc(F)cc1
> 500 mg/kg

----------
Tested on: Rattus norvegicus
assay_notes: Toxicity in po dosed albino Sprague-Dawley rat assessed as time of peak effect for behavioural toxicity
Format: organism-based
run_conditions: in vivo
measured_endpoint: Time (h)
Write the number in h without appending the unit.

Known Time results, listed for orientation:
compound	Time, h
CC(C)(C)[C@@H](N)C(=O)NCc1ccc(C(F)(F)F)cc1	0.25
CC(C)(C)[C@@H](N)C(=O)NCc1ccc(OCc2cccc(F)c2)cc1	0.25
CC(C)[C@@H](N)C(=O)NCc1ccc(COc2cccc(F)c2)cc1	0.25
CC(C)(C)[C@@H](N)C(=O)NCc1ccc(Cl)cc1	0.25
CC(C)[C@H](N)C(=O)NCc1ccc(COc2cccc(F)c2)cc1	0.25
COc1ccc(CNC(=O)[C@H](N)C(C)C)cc1	0.25
CC(C)(C)[C@@H](N)C(=O)NCc1ccc(COc2cccc(F)c2)cc1	0.25
Cc1ccc(CNC(=O)[C@H](N)C(C)C)cc1	0.25

Quick check: Time of CC(C)(C)[C@@H](N)C(=O)NCc1ccc(OC(F)(F)F)cc1 ?
0.25

Look up Time: CCC1(c2ccccc2)C(=O)NC(=O)NC1=O
0.5

Fill blank: measured Time of the compound CC(C)[C@@H](N)C(=O)NCc1ccc(-c2ccccc2)cc1 is ____.
0.25

Endpoint output: Time of CCCC(CCC)C(=O)[O-].[Na+] [VALPROATE SODIUM] . Value?
0.5

----------
assay_notes: Neurotoxicity in ip dosed NMRI mouse assessed as median neurological impairing dose after 30 mins by rotarod test
Format: toxicity, organism-based
run_conditions: in vivo
Recorded measurements of TD50 at 0.5 h, one per entry

Completed entries (count: 2):
molecule	result
COC[C@@H](NC(C)=O)C(=O)NCc1ccccc1 [LACOSAMIDE]	19 mg/kg
COC[C@@H](N)C(=O)NCc1ccc(C(F)(F)F)cc1.Cl	48 mg/kg

Please look up its TD50 at 0.5 h: COC[C@@H](N)C(=O)NCc1ccccc1.Cl
> 120 mg/kg

Request the reported TD50 at 0.5 h associated with COC[C@@H](N)C(=O)NCc1ccc(OC(F)(F)F)cc1.Cl
30 mg/kg

Recorded TD50 at 0.5 h for CC(C)[C@@H](N)C(=O)NCc1ccccc1 , please?
47 mg/kg

# TD50 at 0.5 h lookup, item COC[C@@H](N)C(=O)NCc1ccc(COc2cccc(F)c2)cc1
46 mg/kg

Record request: TD50 at 0.5 h value, item COC[C@H](N)C(=O)NCc1ccccc1
63 mg/kg

Fill blank: measured TD50 at 0.5 h of the molecule COC[C@@H](N)C(=O)NCc1ccc(Br)cc1.Cl is ____.
115 mg/kg

----------
Test system: Mus musculus
assay_notes: Anticonvulsant activity in ip dosed NMRI mouse assessed as protection against maximal electroshock seizure after 30 mins
Format: functional
run_conditions: 0.5 h
measured_endpoint: ED50 (mg/kg)
Please reply with the bare figure in mg/kg and do not write the unit itself.

molecule	ED50 (mg/kg)
C[C@@H](N)C(=O)NCc1ccc(OCc2cccc(F)c2)cc1	17
CC(C)(C)[C@@H](N)C(=O)NCc1ccccc1	13
COC[C@@H](N)C(=O)NCc1ccc(-c2ccccc2)cc1.Cl	15
COC[C@@H](NC(C)=O)C(=O)NCc1ccccc1 [LACOSAMIDE]	3.3
COC[C@@H](N)C(=O)NCc1ccc(COc2cccc(F)c2)cc1	8.9
COC[C@@H](N)C(=O)NCc1ccc(OC(F)(F)F)cc1.Cl	10

Then there is this molecule:
What is its ED50 for Mus musculus? Entry: COC[C@@H](N)C(=O)NCc1ccccc1.Cl
34

----------
System: Mus musculus
assay_notes: Neurotoxicity in ip dosed albino CF1 mouse assessed as time of peak effect for median neurological impairing
Assay type: toxicity, organism-based
run_conditions: in vivo
measured_endpoint: Time (h)
// units = h; emit number, no label

Solved cases (2 shown):
molecule	unit_of_measure	result
CC(C)(C)[C@@H](N)C(=O)NCc1ccc(OC(F)(F)F)cc1	h	0.25
CCC1(c2ccccc2)C(=O)NC(=O)NC1=O [PHENOBARBITAL]	h	0.5

// query Time value for entry CCCC(CCC)C(=O)[O-].[Na+] [VALPROATE SODIUM]
0.25

Need Time, item CC(C)[C@@H](N)C(=O)NCc1ccc(F)cc1
0.25

Sample CC(C)[C@@H](N)C(=O)NCc1ccc(Cl)cc1 — what was its Time?
0.25

Form field: reported Time of CC(C)(C)[C@@H](N)C(=O)NCc1ccc(OCc2cccc(F)c2)cc1
0.5

Give its Time value. Item: CC(C)[C@@H](N)C(=O)NCc1ccc(-c2ccccc2)cc1
0.5

Consider the molecule CC(C)(C)[C@@H](N)C(=O)NCc1ccc(COc2cccc(F)c2)cc1 and give its measured Time.
0.5

Quick one: Time for CC(C)(C)[C@@H](N)C(=O)NCc1ccc(C(F)(F)F)cc1 ?
0.25

Recorded Time of COc1ccc(CNC(=O)[C@H](N)C(C)C)cc1 , please.
0.5

For the molecule O=C1NC(=O)C(c2ccccc2)(c2ccccc2)N1 [PHENYTOIN] , what Time is on record?
0.25

Suppose we examine the molecule CC(C)[C@@H](N)C(=O)NCc1ccc(C(F)(F)F)cc1 ; what Time value has been reported?
0.25

Dear colleague, I am looking for the recorded Time of the following molecule: COC[C@@H](N)C(=O)NCc1ccccc1.Cl
0.25

Record request: Time value, item CC(C)(C)[C@H](N)C(=O)NCc1ccccc1
0.25

Need Time of CC(C)(C)[C@@H](N)C(=O)NCc1ccccc1 , thanks.
0.25

Which measured Time value corresponds to CC(C)(C)[C@@H](N)C(=O)NCc1ccc(-c2ccccc2)cc1 ?
0.5

Given COC[C@@H](NC(C)=O)C(=O)NCc1ccccc1 [LACOSAMIDE] , state its recorded Time.
0.25

If you can, please state the reported Time value of CC(C)(C)[C@@H](N)C(=O)NCc1ccc(Cl)cc1 .
0.5

----------
assay_notes: Neurotoxicity in ip dosed albino CF1 mouse assessed as median neurological impairing dose after 30 mins
Format: toxicity, organism-based
run_conditions: in vivo
# TD50 at 0.5 h per entry
Please state the figure in mg/kg; there is no need to write the unit.

// solved cases for TD50 at 0.5 h follow
CC(C)[C@@H](N)C(=O)NCc1ccc(C(F)(F)F)cc1 57
CC(C)(C)[C@@H](N)C(=O)NCc1ccc(-c2ccccc2)cc1 30

Recorded TD50 at 0.5 h of CC(C)(C)[C@@H](N)C(=O)NCc1ccc(Cl)cc1 , please.
84
